Species: Rattus norvegicus
Test protocol: Open TG-GATES - Regimen: Single
Assay type: toxicity, organism-based, Sprague-Dawley
Design: regimen Single, gender Male, age 6 weeks
Condition: in vivo, po, 1000 mg/kg, 9 h, tissue Blood, route gavage, dose level High
Could you please report measured PT for the items listed next?
// return numeric value only (unit: s, not printed)

// query Specify reported PT for the compound shown: COC(=O)C1=C(C)NC(C)=C(C(=O)OC)C1c1ccccc1[N+](=O)[O-] [NIFEDIPINE]
// result 14.6

// query Specify reported PT for the compound shown: CN/C(=N/CCSCc1nc[nH]c1C)NC#N [CIMETIDINE]
// result 14.1

// query Specify reported PT for the compound shown: CNC(=C[N+](=O)[O-])NCCSCc1ccc(CN(C)C)o1 [RANITIDINE]
// result 12.6

// query Specify reported PT for the compound shown: O=C(OC[C@H]1O[C@@H](OC(=O)c2cc(O)c(O)c(OC(=O)c3cc(O)c(O)c(O)c3)c2)[C@H](OC(=O)c2cc(O)c(O)c(OC(=O)c3cc(O)c(O)c(O)c3)c2)[C@@H](OC(=O)c2cc(O)c(O)c(OC(=O)c3cc(O)c(O)c(O)c3)c2)[C@@H]1OC(=O)c1cc(O)c(O)c(OC(=O)c2cc(O)c(O)c(O)c2)c1)c1cc(O)c(O)c(OC(=O)c2cc(O)c(O)c(O)c2)c1 [TANNIC ACID]
// result 12.3

// query Specify reported PT for the compound shown: Cc1nnc2n1-c1ccc(Cl)cc1C(c1ccccc1Cl)=NC2 [TRIAZOLAM]
// result 13.9

###

Species: Rattus norvegicus
Test protocol: Open TG-GATES - Regimen: Single
Assay type: toxicity, organism-based, Sprague-Dawley
Parameters: regimen Single, gender Male, age 6 weeks
Condition: in vivo, po, 1000 mg/kg, 3 h, tissue Plasma, route gavage, dose level High
We use 40 IU/L as the dividing line for ALT: on or above the line is criterion met, below is criterion not met.

// query Does the reported ALT for COC(=O)C1=C(C)NC(C)=C(C(=O)OC)C1c1ccccc1[N+](=O)[O-] [NIFEDIPINE] fall at or above the 40 IU/L mark?
// result criterion met

// query Does the reported ALT for CNC(=C[N+](=O)[O-])NCCSCc1ccc(CN(C)C)o1 [RANITIDINE] fall at or above the 40 IU/L mark?
// result criterion not met

// query Does the reported ALT for CN/C(=N/CCSCc1nc[nH]c1C)NC#N [CIMETIDINE] fall at or above the 40 IU/L mark?
// result criterion not met

// query Does the reported ALT for Cc1nnc2n1-c1ccc(Cl)cc1C(c1ccccc1Cl)=NC2 [TRIAZOLAM] fall at or above the 40 IU/L mark?
// result criterion not met

###

Species on record: Rattus norvegicus
Test protocol: Open TG-GATES - Regimen: Single
Type: toxicity, organism-based, Sprague-Dawley
Design: regimen Single, gender Male, age 6 weeks
Condition: in vivo, po, 0 mg/kg, 24 h, tissue Blood, route gavage, dose level Control
Attribute measured: Hb (g/dL)
// return numeric value only (unit: g/dL, not printed)

// query Specify reported Hb for the molecule shown: CCCc1cc(=O)[nH]c(=S)[nH]1
// result 13.2

// query Specify reported Hb for the molecule shown: Brc1ccccc1
// result 12.6

// query Specify reported Hb for the molecule shown: Nc1c2c(nc3ccccc13)CCCC2
// result 13.4

// query Specify reported Hb for the molecule shown: CCOc1ccc(NC(C)=O)cc1
// result 13.3

// query Specify reported Hb for the molecule shown: CC(C)NNC(=O)c1ccncc1
// result 13.5

// query Specify reported Hb for the molecule shown: CN/C(=N/CCSCc1nc[nH]c1C)NC#N
// result 13.5

// query Specify reported Hb for the molecule shown: Cc1nnc2n1-c1ccc(Cl)cc1C(c1ccccc1Cl)=NC2
// result 13.2

// query Specify reported Hb for the molecule shown: CN(C)CCC(c1ccc(Cl)cc1)c1ccccn1 (stereo not drawn)
// result 13.3

// query Specify reported Hb for the molecule shown: CN1C(=O)CCS(=O)(=O)C1c1ccc(Cl)cc1 (stereo not drawn)
// result 13.4

// query Specify reported Hb for the molecule shown: O=C(OC[C@H]1O[C@@H](OC(=O)c2cc(O)c(O)c(OC(=O)c3cc(O)c(O)c(O)c3)c2)[C@H](OC(=O)c2cc(O)c(O)c(OC(=O)c3cc(O)c(O)c(O)c3)c2)[C@@H](OC(=O)c2cc(O)c(O)c(OC(=O)c3cc(O)c(O)c(O)c3)c2)[C@@H]1OC(=O)c1cc(O)c(O)c(OC(=O)c2cc(O)c(O)c(O)c2)c1)c1cc(O)c(O)c(OC(=O)c2cc(O)c(O)c(O)c2)c1
// result 12.5

// query Specify reported Hb for the molecule shown: NC1=NC(=O)C(c2ccccc2)O1 (stereo not drawn)
// result 12.8

// query Specify reported Hb for the molecule shown: COC(=O)C1=C(C)NC(C)=C(C(=O)OC)C1c1ccccc1[N+](=O)[O-]
// result 13.1

// query Specify reported Hb for the molecule shown: CNC(=C[N+](=O)[O-])NCCSCc1ccc(CN(C)C)o1
// result 13.7

###

Could you please report measured KIDNEY_L for the items listed next?
Organism: Rattus norvegicus
Test protocol: Open TG-GATES - Regimen: Single
Format: toxicity, organism-based, Sprague-Dawley
Design: regimen Single, gender Male, age 6 weeks
Condition: in vivo, po, 1000 mg/kg, 6 h, tissue Kidney, route gavage, dose level High
// return numeric value only (unit: g, not printed)

// query Specify reported KIDNEY_L for the compound shown: O=C(OC[C@H]1O[C@@H](OC(=O)c2cc(O)c(O)c(OC(=O)c3cc(O)c(O)c(O)c3)c2)[C@H](OC(=O)c2cc(O)c(O)c(OC(=O)c3cc(O)c(O)c(O)c3)c2)[C@@H](OC(=O)c2cc(O)c(O)c(OC(=O)c3cc(O)c(O)c(O)c3)c2)[C@@H]1OC(=O)c1cc(O)c(O)c(OC(=O)c2cc(O)c(O)c(O)c2)c1)c1cc(O)c(O)c(OC(=O)c2cc(O)c(O)c(O)c2)c1 [TANNIC ACID]
// result 0.9

// query Specify reported KIDNEY_L for the compound shown: Cc1nnc2n1-c1ccc(Cl)cc1C(c1ccccc1Cl)=NC2 [TRIAZOLAM]
// result 0.9

// query Specify reported KIDNEY_L for the compound shown: CN/C(=N/CCSCc1nc[nH]c1C)NC#N [CIMETIDINE]
// result 1

// query Specify reported KIDNEY_L for the compound shown: COC(=O)C1=C(C)NC(C)=C(C(=O)OC)C1c1ccccc1[N+](=O)[O-] [NIFEDIPINE]
// result 0.9

// query Specify reported KIDNEY_L for the compound shown: CNC(=C[N+](=O)[O-])NCCSCc1ccc(CN(C)C)o1 [RANITIDINE]
// result 0.9

###

Species: Rattus norvegicus
Test protocol: Open TG-GATES - Regimen: Daily Repeat
Assay type: toxicity, organism-based, Sprague-Dawley
Parameters: regimen Daily Repeat, gender Male, age 6 weeks
Condition: in vivo, po, 300 mg/kg, […], tissue Blood, route gavage, dose level Middle, time 28 day
Attribute measured: RBC (x10_4/ul)
// return numeric value only (unit: x10_4/ul, not printed)

// query Specify reported RBC for the molecule shown: COC(=O)C1=C(C)NC(C)=C(C(=O)OC)C1c1ccccc1[N+](=O)[O-] [NIFEDIPINE]
// result 630.8

// query Specify reported RBC for the molecule shown: CN/C(=N/CCSCc1nc[nH]c1C)NC#N [CIMETIDINE]
// result 747.2

// query Specify reported RBC for the molecule shown: O=C(OC[C@H]1O[C@@H](OC(=O)c2cc(O)c(O)c(OC(=O)c3cc(O)c(O)c(O)c3)c2)[C@H](OC(=O)c2cc(O)c(O)c(OC(=O)c3cc(O)c(O)c(O)c3)c2)[C@@H](OC(=O)c2cc(O)c(O)c(OC(=O)c3cc(O)c(O)c(O)c3)c2)[C@@H]1OC(=O)c1cc(O)c(O)c(OC(=O)c2cc(O)c(O)c(O)c2)c1)c1cc(O)c(O)c(OC(=O)c2cc(O)c(O)c(O)c2)c1 [TANNIC ACID]
// result 765.2

// query Specify reported RBC for the molecule shown: CNC(=C[N+](=O)[O-])NCCSCc1ccc(CN(C)C)o1 [RANITIDINE]
// result 747

// query Specify reported RBC for the molecule shown: CCOc1ccc(NC(C)=O)cc1 [PHENACETIN]
// result 754.2

// query Specify reported RBC for the molecule shown: Cc1nnc2n1-c1ccc(Cl)cc1C(c1ccccc1Cl)=NC2 [TRIAZOLAM]
// result 793.4

###

Could you please report measured Lym for the items listed next?
Species on record: Rattus norvegicus
Test protocol: Open TG-GATES - Regimen: Daily Repeat
Type: toxicity, organism-based, Sprague-Dawley
Set-up: regimen Daily Repeat, gender Male, age 6 weeks
Condition: in vivo, po, 100 mg/kg, 72 h, tissue Blood, route gavage, dose level Low, time 3 day
// return numeric value only (unit: %, not printed)

// query Specify reported Lym for the compound shown: O=C(OC[C@H]1O[C@@H](OC(=O)c2cc(O)c(O)c(OC(=O)c3cc(O)c(O)c(O)c3)c2)[C@H](OC(=O)c2cc(O)c(O)c(OC(=O)c3cc(O)c(O)c(O)c3)c2)[C@@H](OC(=O)c2cc(O)c(O)c(OC(=O)c3cc(O)c(O)c(O)c3)c2)[C@@H]1OC(=O)c1cc(O)c(O)c(OC(=O)c2cc(O)c(O)c(O)c2)c1)c1cc(O)c(O)c(OC(=O)c2cc(O)c(O)c(O)c2)c1 [TANNIC ACID]
// result 72.6

// query Specify reported Lym for the compound shown: CCOc1ccc(NC(C)=O)cc1 [PHENACETIN]
// result 76.8

// query Specify reported Lym for the compound shown: Cc1nnc2n1-c1ccc(Cl)cc1C(c1ccccc1Cl)=NC2 [TRIAZOLAM]
// result 74.2

// query Specify reported Lym for the compound shown: CNC(=C[N+](=O)[O-])NCCSCc1ccc(CN(C)C)o1 [RANITIDINE]
// result 78.6

// query Specify reported Lym for the compound shown: COC(=O)C1=C(C)NC(C)=C(C(=O)OC)C1c1ccccc1[N+](=O)[O-] [NIFEDIPINE]
// result 71.4

// query Specify reported Lym for the compound shown: CN/C(=N/CCSCc1nc[nH]c1C)NC#N [CIMETIDINE]
// result 77.6
